- Target: T1, human CLDN9 (UniProt O95484 1-217)
- T1 chain: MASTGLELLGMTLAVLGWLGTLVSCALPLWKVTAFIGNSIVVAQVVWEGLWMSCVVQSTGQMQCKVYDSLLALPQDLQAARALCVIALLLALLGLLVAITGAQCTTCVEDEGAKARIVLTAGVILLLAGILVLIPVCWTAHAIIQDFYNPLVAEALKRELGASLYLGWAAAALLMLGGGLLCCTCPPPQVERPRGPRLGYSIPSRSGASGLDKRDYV
- Assay Explanation: HEK293E cell binding; avid
We begin with a simple list: items and their reported EC50.
All answers are understood in µg/mL, so give the number only.

# Binder, Endpoint Result
records = [
    ("XENP36040 H2.90_L1 (antibody, V domains shown) VH: EVQLVQSGAEVKKPGESLRISCKTSGYTFTEYTMHWVRQMPGKSLEWMGGIDPNNLNTHYNQKFQGHVTISVDKSISTAYLQWSSLKASDTAMYYCARIYYFGRLYFDFWGAGTLVTVSS VL: DIQMTQSPSSLSASVGDRVTITCQASEDIYNRLAWYQQKPGKVPKLLISGATSLETGVPSRFSGSGSGKDYTFTISSLQPEDIATYYCQQYWSSPLTFGGGTKVEIKR", 66.1),
]

Task: For XENP35888 H1.24_L1 (antibody, V domains shown) VH: QVQLVQSGAEVKKPGASVKVSCKTSGYTFTEYTMHWVRQAPGQSLEWMGGIDPNNGNTHYNQKFQGRVTITVDKSASTAYMELSSLRSEDTAVYYCARIYYLGRLYFDFWGAGTLVTVSS VL: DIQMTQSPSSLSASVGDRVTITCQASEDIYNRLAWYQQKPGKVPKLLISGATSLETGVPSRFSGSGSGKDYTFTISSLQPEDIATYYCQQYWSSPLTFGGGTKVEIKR , what is its reported EC50?
Result: 43.8

Source listed as patent US20240400675A1.
